# IC50 annotations
- Assay comment: Cytotoxicity against human HepG2/C3A cells after 24 hrs by neutral red dye uptake assay
- Assay type: cell-based
Property: IC50

COc1ccc(-c2cc3c4c(nccc4n2)-c2ccccc2C3=O)cc1    > 50 µM
O=C1c2ccccc2-c2nccc3nc(-c4ccc(F)cc4)cc1c23    > 50 µM
O=C1c2ccccc2-c2nccc3nc(-c4ccc(Cl)cc4)cc1c23    > 50 µM

// data source = ChEMBL document CHEMBL2434878
